Tested on: Enterococcus faecalis
methodDescription: Percent fluorescence (growth) in wells containing antimicrobial agents, Example 1 (Table 6)
Type: cell-based
setupConditions: Enterococcus faecalis; 8 μg/mL; read-out: percent fluorescence
As shown below, each of these compounds has a reported activity at 8 µg/mL value.

[
  {
    "structureNotation": "CO/N=C(\\C(=O)N[C@@H]1C(=O)N2C(C(=O)O)=C(COC(N)=O)CS[C@H]12)c1ccco1",
    "activity at 8 µg/mL, %": 15
  },
  {
    "structureNotation": "CCn1cc(C(=O)O)c(=O)c2cc(F)c(N3CCNCC3)cc21",
    "activity at 8 µg/mL, %": 6
  },
  {
    "structureNotation": "C[C@@H](O)[C@H]1C(=O)N2C(C(=O)O)=C(SCCN=CN)C[C@H]12",
    "activity at 8 µg/mL, %": 5
  },
  {
    "structureNotation": "CO/N=C(\\C(=O)N[C@@H]1C(=O)N2C(C(=O)O)=C(COC(C)=O)CS[C@H]12)c1csc(N)n1",
    "activity at 8 µg/mL, %": 8
  },
  {
    "structureNotation": "Cn1nnnc1SCC1=C(C(=O)O)N2C(=O)[C@@H](NC(=O)[C@H](O)c3ccccc3)[C@H]2SC1",
    "activity at 8 µg/mL, %": 104
  },
  {
    "structureNotation": "CC1(C)S[C@@H]2[C@H](NC(=O)[C@H](N)c3ccccc3)C(=O)N2[C@H]1C(=O)O",
    "activity at 8 µg/mL, %": 6
  },
  {
    "structureNotation": "Cc1nnc(SCC2=C(C(=O)O)N3C(=O)[C@@H](NC(=O)Cn4cnnn4)[C@H]3SC2)s1",
    "activity at 8 µg/mL, %": 104
  },
  {
    "structureNotation": "CO/N=C(\\C(=O)N[C@@H]1C(=O)N2C(C(=O)O)=C(CSc3nc(=O)c(=O)[nH]n3C)CS[C@H]12)c1csc(N)n1",
    "activity at 8 µg/mL, %": 9
  }
]
